Source of measurements: the supplement of paper PMC8728848

# TEST SYSTEM: Man(a1-2)Man(a1-2)Man(a1-6)[Man(a1-3)]Man
# MEASUREMENT DESCRIPTION: glycan array binding signal (z-score within array); higher = stronger binding
# STATED CONDITIONS: glycan notation: IUPAC condensed, linker removed
The sample as a whole holds a higher share of the strongest signals than the screen did.
VALUE KIND: glycan array binding signal (z-score)
Numbers only.

Check out these entries, answers already filled in.
BINDER	OBS VALUE
FaeGad (Escherichia coli) (protein) WMTGDFNGSVDIGGSITADDYRQKWEWEVGTGLNGFGSVLNDLTNGGTKLTITVTGNKPILLGRTKEAFATPVTSGVDGIPHIAFTDYEGASVELRNPDGETEKGLTYFVLPMKNAEGTKVGSVKVNASYAGALGRGGVTSADGELMSLFAEGSHAIFYGGLPTNVKNSELKGGSAAAARTELFGSLSKNDILGQIQRVNANITSLVNVPGSFNENMAYTDGSVVSVAYALGIANGQTIEATFNQAVTTSTQWSAPLNVAITYY	1.83
SJCP3842 (Schistosoma japonicum) (protein) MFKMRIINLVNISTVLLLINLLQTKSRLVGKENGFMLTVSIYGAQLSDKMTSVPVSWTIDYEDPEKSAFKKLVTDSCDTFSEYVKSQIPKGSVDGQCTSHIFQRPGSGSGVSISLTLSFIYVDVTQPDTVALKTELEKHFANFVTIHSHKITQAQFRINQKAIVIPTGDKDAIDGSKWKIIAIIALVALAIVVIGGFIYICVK	-0.903
RS2L (Ralstonia solanacearum), B5RXL5_RALSO (protein) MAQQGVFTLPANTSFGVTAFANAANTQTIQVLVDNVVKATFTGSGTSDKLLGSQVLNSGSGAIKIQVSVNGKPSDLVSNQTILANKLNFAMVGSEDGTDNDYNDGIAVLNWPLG	6.32
FaeGac (Escherichia coli) (protein) WMTGDFNGSVDIGGSITADDYRQKWEWKVGTGLNGFGNVLNDLTNGGTKLTITVTGNKPILLGRTKEAFATPVTGGVDGIPHIAFTDYEGASVVLRKPDGETNKNGLAYFVLPMKNAGGTKVGSVKVNASYAGVLGRGGVTSADGELLSLFADGLSSIFYGGLPRGSELSAGSAAAARTKLFGSLSRDDILGQIQRVNANVTSLVDVAGSYRENMEYTDGNVVSAAYALGIANGQTIEATFNQAVTTSTQWSAPLNVAITYY	3.1
Pwp3 (Candida glabrata) (protein) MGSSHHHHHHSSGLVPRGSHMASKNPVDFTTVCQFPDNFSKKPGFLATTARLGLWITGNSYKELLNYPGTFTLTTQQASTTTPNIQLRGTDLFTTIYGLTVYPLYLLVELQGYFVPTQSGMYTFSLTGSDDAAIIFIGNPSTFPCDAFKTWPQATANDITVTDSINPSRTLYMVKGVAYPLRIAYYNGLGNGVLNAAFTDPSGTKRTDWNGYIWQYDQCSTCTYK	-0.335

Prompt line: // returns reported glycan array binding signal (z-score) for input FaeGab (Escherichia coli) (protein) WMTGDFNGSVDIGGSITADDYRQKWEWKVGTGLNGFGNVLNDLTNGGTKLTITVTGNKPILLGRTKEAFATPVSGGVDGIPQIAFTDYEGASVKLRNTDGETNKGLAYFVLPMKNAEGTKVGSVKVNASYAGVFGKGGVTSADGELFSLFADGLRAIFYGGLTTTVSGAALTSGSAAAARTELFGSLSRNDILGQIQRVNANITSLVDVAGSYREDMEYTDGTVVSAAYALGIANGQTIEATFNQAVTTSTQWSAPLNVAITYY
Response line: 1.91
